Recorded IC50 values for a group of compounds are listed next.
Target: human TPH1 (Homo sapiens)
Sequence (P17752 whole entry): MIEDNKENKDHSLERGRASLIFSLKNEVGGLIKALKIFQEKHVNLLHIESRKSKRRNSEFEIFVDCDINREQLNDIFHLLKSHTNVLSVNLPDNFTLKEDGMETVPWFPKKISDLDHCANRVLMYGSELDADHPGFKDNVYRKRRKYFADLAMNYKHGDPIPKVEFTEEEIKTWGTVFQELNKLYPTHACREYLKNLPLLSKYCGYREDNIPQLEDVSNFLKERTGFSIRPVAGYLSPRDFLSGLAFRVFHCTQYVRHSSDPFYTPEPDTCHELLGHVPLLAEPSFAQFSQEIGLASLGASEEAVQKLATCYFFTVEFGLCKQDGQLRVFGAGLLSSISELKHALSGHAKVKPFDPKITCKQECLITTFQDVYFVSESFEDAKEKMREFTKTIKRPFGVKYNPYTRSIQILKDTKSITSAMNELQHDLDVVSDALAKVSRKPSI
Assay: biochemical
Entry rule: numbers only, all in nM.

Compound	Measured Metric	Quantity Unit	Result Number
CCOc1ccc(C2c3c(nc4cc(C(F)(F)F)ccn34)CCN2C(=O)COc2ccc(CN3CCOCC3)cc2Cl)cn1 (stereo not shown)	IC50	nM	18
CCc1nc(NS(C)(=O)=O)ccc1OCC(=O)N1CCc2nc3cnccn3c2C1c1sc(C)nc1C (stereo not shown)	IC50	nM	461

IN: May I ask what IC50 has been recorded for COc1ccc(C2c3c(nc4ccccn34)CCN2C(=O)COc2ccc3ccccc3c2Cl)cc1OC (stereo not shown) ?
OUT: 8

IN: Entry COC(=O)c1ccc(OCC(=O)N2CCc3nc4ccccn4c3[C@@H]2c2ncc(Cl)cc2F)c(Cl)n1 please
OUT: 222
